# tgt: Thioredoxin reductase (Homo sapiens, UniProt Q16881+Q9NNW7+Q86VQ6)
# procedureDetails: Inhibition of thioredoxin reductase in human A549/CDDP cells by DTNB dye based microplate spectrophotometry
# Format: cell-based
measuredProperty: IC50 (µM)

{"columns": ["compound", "measuredProperty", "valueObserved"],
 "data": [
  ["COc1cc(/C=C/C(=O)/C=C/c2nc(C)c(C)nc2C)cc(OC)c1OC", "IC50", 1.98],
  ["COc1cccc(/C=C/C(=O)/C=C/c2nc(C)c(C)nc2C)c1O", "IC50", 4.64],
  ["COc1ccc(/C=C/C(=O)/C=C/c2nc(C)c(C)nc2C)cc1OC", "IC50", 4.22],
  ["COc1cc(/C=C/C(=O)/C=C/c2nc(C)c(C)nc2C)ccc1O", "IC50", 1.22]
]}

A = COc1ccc(/C=C/C(=O)/C=C/c2nc(C)c(C)nc2C)c(OC)c1
B = COc1cc(/C=C/C(=O)CC(=O)/C=C/c2ccc(O)c(OC)c2)ccc1O [CURCUMIN]
Ask | Of A and B , which one carries the higher reported IC50? Write the label of whichever entry you select.
Reply | B
(B: 39.42 µM, A: 4.26 µM)
